All values here come from patent US20210380680A1.

Target: T1, human Claudin 18.2 (CLDN18.2) (human, UniProt P56856-2 1-261)
T1 construct: whole, on cells; recombinantly expressed on CHO, HEK293, NCI-N87, NUGC4 or PANC-1 cells; also called CHO-CLDN18.2
Assay: FACS Exp. 1, MFI ratio CHO-18.2 over CHO-18.1
Attribute: MFI_CHO-18.2/CHO-18.1 (@30 ug/ml)
Kindly provide the number alone.

Guide cases for MFI_CHO-18.2/CHO-18.1 (@30 ug/ml), answers given:
binder	reported
hz282-8 (antibody, V domains shown, humanized IgG; constant regions not specified) VH: QVQLQESGPGLVKPSETLSLTCTVAGFSLTSYNVYWIRQPPGKGLEWIGVIWNTGATRYNSALKSRVTISKDTSKSQVSLKLSSVTAADTAVYYCARDSAMPAIPFAYWGQGTLVTVSS VL: DIVMTQSPDSLAVSLGERATINCKSSQSLFGSVRQKNYLAWYQQKPGQSPKLLIYLASTRESGVPDRFSGSGSGTDFTLTISSLQAEDVAKYYCQQYYDIPWTFGGGTKVEIK	960
hz282-7 (antibody, V domains shown, humanized IgG; constant regions not specified) VH: QVQLQESGPGLVKPSETLSLTCTVSGFSLTSYNVYWIRQPPGKGLEWIGVIWNTGATRYNSALKSRVTISKDTSKSQVSLKLSSVTAADTAVYYCARDSAMPAIPFAYWGQGTLVTVSS VL: DIVMTQSPDSLAVSLGERATINCKSSQSLFGSVRQKNYLAWYQQKPGQSPKLLIYLASTRESGVPDRFSGSGSGTDFTLTISSLQAEDVAKYYCQQYYDIPWTFGGGTKVEIK	624

Kindly indicate its recorded MFI_CHO-18.2/CHO-18.1 (@30 ug/ml). Item: hz282-19 (antibody, V domains shown, humanized IgG; constant regions not specified) VH: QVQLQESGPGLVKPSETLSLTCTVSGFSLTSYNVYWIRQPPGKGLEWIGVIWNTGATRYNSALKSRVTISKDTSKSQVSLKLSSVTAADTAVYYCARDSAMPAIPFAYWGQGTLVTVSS VL: DIVMTQSPSSLSASVGDRVTINCKSSQSLFGSVRQKNYLAWYQQKPGKSPKLLIYLASTRESGVPDRFSGSGSGTDFTLTISSLQPEDFAKYYCQQYYDIPWTFGGGTKVEIK
812
